Every entry's value here was drawn from paper PMC7948503.

TARGET_OR_TEST_SYSTEM: T1, Rluc-ADGRG2-ΔGPS-β L683A (mouse, UniProt Q8CJ12-3 38-995, L683A)
T1 construct: ADGRG2 (GPR64), mouse, ADGRG2-ΔGPS-β: the entire ECD removed; source: HEK293, transfected, on cells; not shown: Rluc, N-terminal, kept
T1 sequence (Q8CJ12 other isoform, or with tags, fused parts or gaps L683A | L683A | L683A L683A): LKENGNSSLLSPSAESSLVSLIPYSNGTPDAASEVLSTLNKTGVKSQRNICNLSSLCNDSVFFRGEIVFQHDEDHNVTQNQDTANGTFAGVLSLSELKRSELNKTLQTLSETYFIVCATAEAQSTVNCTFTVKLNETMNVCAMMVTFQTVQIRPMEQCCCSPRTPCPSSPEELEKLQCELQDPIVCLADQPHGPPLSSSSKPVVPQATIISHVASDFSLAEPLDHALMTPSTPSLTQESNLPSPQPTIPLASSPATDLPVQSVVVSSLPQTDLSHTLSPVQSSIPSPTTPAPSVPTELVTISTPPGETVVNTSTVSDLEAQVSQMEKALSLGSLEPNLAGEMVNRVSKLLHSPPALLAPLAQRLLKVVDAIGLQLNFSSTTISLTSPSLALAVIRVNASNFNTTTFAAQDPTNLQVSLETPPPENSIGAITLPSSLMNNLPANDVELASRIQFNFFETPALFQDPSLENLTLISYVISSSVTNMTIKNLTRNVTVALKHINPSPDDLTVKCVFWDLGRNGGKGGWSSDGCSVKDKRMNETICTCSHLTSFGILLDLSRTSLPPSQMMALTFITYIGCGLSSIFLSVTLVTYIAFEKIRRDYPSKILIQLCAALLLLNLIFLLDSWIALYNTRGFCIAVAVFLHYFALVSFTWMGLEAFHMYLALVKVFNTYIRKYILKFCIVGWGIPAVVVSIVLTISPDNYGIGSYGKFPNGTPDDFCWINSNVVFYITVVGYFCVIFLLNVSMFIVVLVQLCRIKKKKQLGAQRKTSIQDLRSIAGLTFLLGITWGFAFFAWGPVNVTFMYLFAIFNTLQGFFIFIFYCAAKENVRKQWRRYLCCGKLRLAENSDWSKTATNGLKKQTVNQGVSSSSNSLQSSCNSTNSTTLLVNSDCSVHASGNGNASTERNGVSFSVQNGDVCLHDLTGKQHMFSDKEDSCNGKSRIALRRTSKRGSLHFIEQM
PROTOCOL_DETAILS: FRET or BRET; HEK293 cells transfected with Rluc-ADGRG2-ΔGPS-β WT or mutants, stimulated by increasing concentrations of FITC-conjugated VPM-p15; saturation curves fitted with GraphPad; each experiment repeated 6 times
MEASUREMENT_CONDITIONS: one partner purified
Non-standard residues stand in square brackets, D forms with d. Primed or numbered codes have the meaning given here. No end group written: not given here. Phe(4-Me) = Cc1ccc(C[C@H](N)C(=O)O)cc1; FITC′ = not defined here

BINDER	EC50 / nM
VS[Phe(4-Me)]GILLDLSRTSLP-{FITC′} [FITC-conjugated VPM-p15 (ADGRG2 Stachel peptide p15 T1V/F3Phe(4-Me))]	1160
